- assay overview: in vivo
- measurement parameters: male, mouse, iv, 1 mg/kg

{"columns": ["molecule", "C0 (ng/mL)"],
 "data": [
  ["CN(Cc1ccc(C(F)(F)F)cc1)c1ccc2cc(C(=O)O)c(=O)oc2c1 [MN-D7]", 185]
]}

* * *

- assay overview: in vivo
- measurement parameters: male, mouse, iv, 1 mg/kg
measure name: Tmax (min)

{"columns": ["smiles representation", "measure name", "reported"],
 "data": [
  ["CN(Cc1ccc(C(F)(F)F)cc1)c1ccc2cc(C(=O)O)c(=O)oc2c1", "Tmax", 4.8]
]}

* * *

- assay overview: in vivo
- measurement parameters: male, mouse, iv, 1 mg/kg

{"columns": ["smiles representation", "MRT last (h)"],
 "data": [
  ["CN(Cc1ccc(C(F)(F)F)cc1)c1ccc2cc(C(=O)O)c(=O)oc2c1", 3.17]
]}

* * *

- assay overview: in vivo
- measurement parameters: female, mouse, iv, 1 mg/kg

{"columns": ["molecule", "half-life, h"],
 "data": [
  ["CN(Cc1ccc(C(F)(F)F)cc1)c1ccc2cc(C(=O)O)c(=O)oc2c1 [MN-D7]", 3.15]
]}

* * *

- assay overview: in vivo
- measurement parameters: male, mouse, po, 5 mg/kg

{"columns": ["molecule", "Cmax"],
 "data": [
  ["CN(Cc1ccc(C(F)(F)F)cc1)c1ccc2cc(C(=O)O)c(=O)oc2c1 [MN-D7]", "890 ng/mL"]
]}

* * *

- assay overview: in vivo
- measurement parameters: male, mouse, iv, 1 mg/kg

{"columns": ["smiles representation", "AUC(0-inf)"],
 "data": [
  ["CN(Cc1ccc(C(F)(F)F)cc1)c1ccc2cc(C(=O)O)c(=O)oc2c1", "486 ng·h/mL"]
]}

* * *

- assay overview: in vivo
- measurement parameters: female, mouse, iv, 1 mg/kg
measure name: MRT last (h)

{"columns": ["smiles representation", "reported"],
 "data": [
  ["CN(Cc1ccc(C(F)(F)F)cc1)c1ccc2cc(C(=O)O)c(=O)oc2c1", 2.95]
]}

* * *

- assay overview: in vivo
- measurement parameters: male, mouse, po

{"columns": ["compound", "bioavailability"],
 "data": [
  ["CN(Cc1ccc(C(F)(F)F)cc1)c1ccc2cc(C(=O)O)c(=O)oc2c1 [MN-D7]", "~125%"]
]}

* * *

- assay overview: in vivo
- measurement parameters: male, mouse, po, 5 mg/kg

{"columns": ["smiles representation", "reading unit", "Tmax"],
 "data": [
  ["CN(Cc1ccc(C(F)(F)F)cc1)c1ccc2cc(C(=O)O)c(=O)oc2c1", "min", 15]
]}

* * *

- assay overview: in vivo
- measurement parameters: female, mouse, iv, 1 mg/kg

{"columns": ["smiles representation", "AUC(0-inf)"],
 "data": [
  ["CN(Cc1ccc(C(F)(F)F)cc1)c1ccc2cc(C(=O)O)c(=O)oc2c1", "626 ng·h/mL"]
]}

* * *

- assay overview: in vivo
- measurement parameters: female, mouse, po
measure name: half-life (h)

{"columns": ["compound", "measure name", "reported"],
 "data": [
  ["CN(Cc1ccc(C(F)(F)F)cc1)c1ccc2cc(C(=O)O)c(=O)oc2c1 [MN-D7]", "half-life", 4.41]
]}

* * *

- assay overview: in vivo
- measurement parameters: male, mouse, po, 5 mg/kg

{"columns": ["smiles representation", "MRT last"],
 "data": [
  ["CN(Cc1ccc(C(F)(F)F)cc1)c1ccc2cc(C(=O)O)c(=O)oc2c1", "4.07 h"]
]}
